Assay: Kinetic solubility of compound in phosphate buffer at pH 7
Please use met whenever solubility kinetic is not below 3 µM, and not met whenever it is.

compound: COc1ccc(S(=O)(=O)Nc2cc3c(cc2Oc2cccc(OCCCCN(C)C)c2)n(C)c(=O)n3C)cc1OC
category: met

compound: Cc1nc(S(=O)(=O)Nc2cc3c(cc2Oc2cccc(OCC(C)C)c2)n(C)c(=O)n3C)cn1C
category: met

compound: CCCOc1cccc(Oc2cc3c(cc2NS(=O)(=O)c2ccc(OC)c(OC)c2)n(C)c(=O)n3C)c1
category: not met

compound: COCCCOc1cccc(Oc2cc3c(cc2NS(=O)(=O)c2cn(C)c(C)n2)n(C)c(=O)n3C)c1
category: met

compound: COc1ccc(S(=O)(=O)Nc2cc3c(cc2Oc2cccc(OCc4ccccc4)c2)n(C)c(=O)n3C)cc1OC
category: not met

compound: CCCOc1cc(OCCCCN(C)C)cc(Oc2cc3c(cc2NS(=O)(=O)c2ccc(OC)c(OC)c2)n(C)c(=O)n3C)c1
category: met

compound: CCOc1cccc(Oc2cc3c(cc2NS(=O)(=O)c2cn(C)c(C)n2)n(C)c(=O)n3C)c1
category: met

compound: CC(C)COc1cccc(Oc2ccc3c(c2)n(C)c(=O)n3C)c1
category: not met

compound: CC(C)COc1cccc(Oc2cc3c(cc2NS(=O)(=O)C2CC2)n(C)c(=O)n3C)c1
category: not met

compound: CCCOc1cccc(Oc2cc3c(cc2NS(=O)(=O)c2cn(C)c(C)n2)n(C)c(=O)n3C)c1
category: met

compound: Cn1cnc(S(=O)(=O)Nc2cc3c(cc2Oc2cccc(OCC4CCOC4)c2)n(C)c(=O)n3C)c1 (configuration not stated)
category: met

compound: CCCOc1cc(OCCCCN)cc(Oc2cc3c(cc2NS(=O)(=O)c2ccc(OC)c(OC)c2)n(C)c(=O)n3C)c1
category: met
